Documented pEC50 across a set of compounds
- MEASURED_TARGET: S. pyogenes SKKanGAS, kanamycin survival, BacTiterGlo, 6 h
- MEASUREMENT_NOTES: S. pyogenes SKKanGAS kanamycin growth inhibitors – SKKanGAS strain, luminescence, dose confirmation, streptokinase promoter inhibitor project, dose response (AID 1902);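 further: lower survival reflects blocked streptokinase promoter driving kanamycin resistance gene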
Please keep in mind that pEC50 is minus log10 of the molar concentration; only the number is needed.

As a guide, the following entries are already answered.
>>> reading("COc1cc(OC)cc(C(=O)NC(=S)N2CCN(c3ccc(C(F)(F)F)cc3[N+](=O)[O-])CC2)c1")
5.89
>>> reading("COc1ccc(/C=C2\\SC(=N)N(c3nccs3)C2=O)cc1OC")
6.08
>>> reading("Cc1ccc(O)c(/C=N/NC(=O)Cc2ccc(Cl)cc2)c1")
5.56
>>> reading("COc1ccc(N=C2S/C(=C\\c3ccc(OC(C)C(=O)O)c(OC)c3)C(=O)N2CCc2c[nH]c3ccccc23)cc1 (stereo not given)")
5.79

Prompt: May I ask what pEC50 has been recorded for c1ccc(-c2csc3ncnc(N4CCc5ccccc5C4)c23)cc1 ?
Response: 5.15

---

- MEASURED_TARGET: S. pyogenes SKKanGAS, kanamycin survival, BacTiterGlo, 6 h
- MEASUREMENT_NOTES: S. pyogenes SKKanGAS kanamycin growth inhibitors – SKKanGAS strain, luminescence, dose confirmation, streptokinase promoter inhibitor project, dose response (AID 1902);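 further: lower survival reflects blocked streptokinase promoter driving kanamycin resistance gene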
pEC50: recorded values
In simple prose, pEC50 is minus the logarithm base ten of a concentration in moles per litre.

Below, 5 compounds whose answers are already recorded.
>>> reading("Cc1ccc(-c2nn(CCC(=O)O)cc2/C=C\\C(=O)c2ccc(Br)cc2)cc1")
5.18
>>> reading("CCOC(=O)c1sc2nc(Cc3ccc(Cl)cc3)[nH]c(=S)c2c1C")
5.49
>>> reading("COC(=O)c1ccc(CSc2cc(C)c3cc(C)cc(C)c3n2)o1")
5.31
>>> reading("Cc1cc(C)c(C(=O)Nc2ccc(Br)c(C(F)(F)F)c2)c(C)c1")
5.55
>>> reading("COc1cccc(/C=N/Nc2nc(Nc3ccc([N+](=O)[O-])cc3)nc(N3CCCC3)n2)c1O")
5.93

Prompt: So what's the measured pEC50 for this one? Clc1ccc2c(N/N=C/c3ccc(Br)cc3)ccnc2c1
Response: 5.50

Prompt: Further, for CN1Cc2cc(C(=O)c3cc(Cl)cc(CSc4ncccn4)c3O)cnc2NC1=O ?
Response: 5.03

Prompt: Now the compound Cc1cc(C(C#N)c2ccc(Cl)cc2)c(Cl)cc1NC(=O)c1cc(I)cc(I)c1O (configuration not stated)
Response: 7.09

Prompt: Now give it for Cc1nc(-c2ccc(S(=O)(=O)Nc3ccc(Br)cc3Cl)s2)cs1 too.
Response: 5.29

Prompt: # iterate: Cc1cc(O)c(C(C)C)cc1C1(c2cc(C(C)C)c(O)cc2C)OC(=O)c2ccccc21
Response: 5.74

Prompt: Another compound: COc1cccc(N2CCN(c3ncnc4c3[nH]c3ccc(F)cc34)CC2C)c1 (configuration not stated)
Response: 5.16

Prompt: Could you do the same for COc1cc(C(=O)NC(=S)N(CCc2ccccc2)CCc2ccccc2)cc(OC)c1OC , please?
Response: 6.48

Prompt: Further, for CCCCn1c(O)c(C(C)=Nc2ccc(OCC)cc2)c(=O)[nH]c1=O ?
Response: 5.01

Prompt: Entry O=c1c2ccccc2sn1-c1ccccc1 please
Response: 5.95

Prompt: # iterate: Cc1ccc(N=N/C(=C\O)C(=O)c2ccc(Cl)cc2)cc1
Response: 5.07

Prompt: Follow-up item: Fc1ccc(CO/N=C/C2=C(Cl)c3ccccc3CC2)cc1
Response: 5.40

Prompt: And COC(=O)c1sc(N2C(=O)C(O)=C(C(=O)c3ccc(C)o3)C2c2ccc([N+](=O)[O-])cc2)nc1C (configuration not stated) ?
Response: 5.39

Prompt: Continue with N=C1/C(=C\c2ccc(-c3cccc(C(=O)O)c3)o2)C(=O)N=C2SC=C(c3ccccc3)N12
Response: 5.92

Prompt: Further, for C/C(=N\NC(=S)NCc1ccccc1)c1cccc(Br)c1 ?
Response: 5.26

Prompt: And then CC(C)n1cnc2c(NCc3ccccc3)nc(NCc3ccccc3)nc21 , what is it?
Response: 5.51

Prompt: Same again, this time with CC(C)Cn1c2c(c(O)c(C(=O)Nc3ncccc3O)c1=O)CCCC2
Response: 5.63

Prompt: Check CN1CCN(NC(=O)Nc2cc(Cl)cc(Cl)c2)CC1 too.
Response: 5.43
